This section presents molecules with their documented Plasma (0.01 μM), activity in % of control values.
Tested on: Dopamine beta hydroxylase (Homo sapiens, UniProt P09172)
Construct: 125 μl of plasma; tissue Instituto Português do Sangue Transplantação; host or cells: human plasma from healthy donors
Sequence (P09172 40-617 limits assumed): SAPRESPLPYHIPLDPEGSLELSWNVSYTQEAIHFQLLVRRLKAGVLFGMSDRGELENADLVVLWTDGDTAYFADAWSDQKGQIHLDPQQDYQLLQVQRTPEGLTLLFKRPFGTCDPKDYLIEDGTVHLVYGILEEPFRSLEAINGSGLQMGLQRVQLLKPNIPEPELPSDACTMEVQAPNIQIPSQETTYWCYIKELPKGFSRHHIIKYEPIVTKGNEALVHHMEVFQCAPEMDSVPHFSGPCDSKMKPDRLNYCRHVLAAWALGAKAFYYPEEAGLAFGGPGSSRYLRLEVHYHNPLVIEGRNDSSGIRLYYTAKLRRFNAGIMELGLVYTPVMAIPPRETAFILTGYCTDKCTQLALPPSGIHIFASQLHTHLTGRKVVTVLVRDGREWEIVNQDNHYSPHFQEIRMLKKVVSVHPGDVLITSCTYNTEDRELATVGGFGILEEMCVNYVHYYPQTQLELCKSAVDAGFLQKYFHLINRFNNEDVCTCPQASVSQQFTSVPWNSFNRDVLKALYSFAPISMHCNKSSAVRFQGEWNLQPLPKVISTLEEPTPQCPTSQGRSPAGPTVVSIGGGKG
Protocol notes: Dopamine beta hydroxylase activity in human plasma
Format: biochemical
Test context: inhibitor 0.01 μM

Molecule	Tested on	Val
Cc1noc(Cc2[nH]c(=S)n3c2C[C@@H](c2c(F)ccc(Cl)c2F)C3)n1	Dopamine beta hydroxylase (Homo sapiens, UniProt P09172)	90.2 % of control
Cn1c(CC(=O)NCC2CCOCC2)c2n(c1=S)C[C@@H](c1c(F)c(F)cc(F)c1F)C2	Dopamine beta hydroxylase (Homo sapiens, UniProt P09172)	79.9 % of control
CN(C(=O)Cc1[nH]c(=S)n2c1C[C@@H](c1c(F)ccc(Cl)c1F)C2)C1CCOC1 (some centres unmarked)	Dopamine beta hydroxylase (Homo sapiens, UniProt P09172)	104.5 % of control
Cn1c(CCc2cccnc2)c2n(c1=S)C[C@@H](c1c(F)c(F)cc(F)c1F)C2	Dopamine beta hydroxylase (Homo sapiens, UniProt P09172)	90.8 % of control
CN(C(=O)Cc1[nH]c(=S)n2c1C[C@@H](c1c(F)ccc(Cl)c1F)C2)C1CCOCC1	Dopamine beta hydroxylase (Homo sapiens, UniProt P09172)	74.9 % of control

Entry CN1CCC(NC(=O)Cc2c3n(c(=S)n2C)C[C@@H](c2c(F)ccc(F)c2F)C3)C1=O (some centres unmarked) : reported Plasma (0.01 μM), activity in % of control = ?
80.8 % of control

Entry Cn1c(CC(=O)NC2CCOCC2)c2n(c1=S)C[C@@H](c1c(F)cccc1F)C2 : reported Plasma (0.01 μM), activity in % of control = ?
94.4 % of control

Entry Cn1c(CC(=O)NCC(F)(F)F)c2n(c1=S)C[C@@H](c1c(F)c(F)cc(F)c1F)C2 : reported Plasma (0.01 μM), activity in % of control = ?
67.0 % of control

* * *

Tested on: DβH (Homo sapiens, UniProt P09172)
Construct: cellular homogenate (75 μg total protein); host or cells: SK-N-SH cells (homogenate)
Sequence (P09172 whole entry): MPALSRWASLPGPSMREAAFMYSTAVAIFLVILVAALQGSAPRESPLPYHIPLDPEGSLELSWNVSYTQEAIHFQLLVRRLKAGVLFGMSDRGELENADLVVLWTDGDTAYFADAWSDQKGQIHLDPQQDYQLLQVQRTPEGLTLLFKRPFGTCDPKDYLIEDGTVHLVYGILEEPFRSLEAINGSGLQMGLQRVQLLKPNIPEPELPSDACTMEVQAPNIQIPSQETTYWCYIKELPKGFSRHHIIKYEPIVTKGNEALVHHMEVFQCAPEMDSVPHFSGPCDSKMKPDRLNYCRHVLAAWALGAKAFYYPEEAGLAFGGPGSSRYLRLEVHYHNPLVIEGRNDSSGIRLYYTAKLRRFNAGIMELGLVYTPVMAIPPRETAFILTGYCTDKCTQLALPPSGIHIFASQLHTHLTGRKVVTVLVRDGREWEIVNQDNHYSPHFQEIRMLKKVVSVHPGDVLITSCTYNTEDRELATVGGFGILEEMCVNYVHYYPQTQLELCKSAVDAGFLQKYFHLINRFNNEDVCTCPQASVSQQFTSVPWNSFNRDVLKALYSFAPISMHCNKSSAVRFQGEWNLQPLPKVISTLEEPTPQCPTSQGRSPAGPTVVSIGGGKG
Protocol notes: DβH inhibition assay in SK-N-SH cellular homogenates (tyramine to octopamine)
Type: biochemical
Test context: SK-N-SH cell homogenate, inhibitor 1 μM
Quantity name: SKNSH (1 μM), activity in % of control

Compound	SKNSH (1 μM), activity in % of control
Fc1ccc(F)c([C@]23C[C@H]2c2c(CCc4ccccc4)[nH]c(=S)n2C3)c1	48.4 % of control
OCCc1[nH]c(=S)n2c1[C@@H]1C[C@]1(c1cc(F)cc(F)c1)C2	15.3 % of control
CCOC(=O)Cc1[nH]c(=S)n2c1C1CC1(c1cccs1)C2 (centres unmarked)	45.9 % of control
CN(CCc1[nH]c(=S)n2c1[C@@H]1C[C@]1(c1cc(F)ccc1F)C2)Cc1ccccc1	29.3 % of control
Fc1ccc(F)c([C@]23C[C@H]2c2c(CCCc4ccccc4)[nH]c(=S)n2C3)c1	33.7 % of control
O=C(O)Cc1[nH]c(=S)n2c1[C@@H]1C[C@]1(c1cc(Cl)ccc1F)C2	0.2 % of control
OCCc1[nH]c(=S)n2c1[C@@H]1C[C@]1(c1cc(F)ccc1F)C2	8.0 % of control
CCOC(=O)Cc1[nH]c(=S)n2c1[C@@H]1C[C@]1(c1cc(F)cc(Cl)c1)C2	3.9 % of control

Entry N#CCc1[nH]c(=S)n2c1[C@@H]1C[C@]1(c1cc(F)ccc1F)C2 : reported SKNSH (1 μM), activity in % of control = ?
50.1 % of control

Entry O=C(O)Cc1[nH]c(=S)n2c1[C@@H]1C[C@]1(c1cc(F)cc(F)c1)C2 : reported SKNSH (1 μM), activity in % of control = ?
3.6 % of control

Entry CCOC(=O)Cc1[nH]c(=S)n2c1[C@@H]1C[C@]1(c1cc(Cl)ccc1F)C2 : reported SKNSH (1 μM), activity in % of control = ?
4.2 % of control

Entry O=C(O)Cc1[nH]c(=S)n2c1[C@@H]1C[C@]1(c1cc(F)cc(Cl)c1)C2 : reported SKNSH (1 μM), activity in % of control = ?
0 % of control

Entry O=C(O)Cc1[nH]c(=S)n2c1C[C@@H](c1cc(F)ccc1F)C2 : reported SKNSH (1 μM), activity in % of control = ?
35.8 % of control

Entry CCOC(=O)Cc1[nH]c(=S)n2c1C[C@@H](c1cc(F)ccc1F)C2 : reported SKNSH (1 μM), activity in % of control = ?
49.3 % of control

Entry O=C(O)Cc1[nH]c(=S)n2c1[C@@H]1C[C@]1(c1cc(F)ccc1F)C2 : reported SKNSH (1 μM), activity in % of control = ?
3.7 % of control

Entry COC(=O)Cc1[nH]c(=S)n2c1[C@@H]1C[C@]1(c1cc(F)cc(F)c1)C2 : reported SKNSH (1 μM), activity in % of control = ?
19.9 % of control

Entry OCc1[nH]c(=S)n2c1[C@@H]1C[C@]1(c1cc(F)cc(F)c1)C2 : reported SKNSH (1 μM), activity in % of control = ?
1.8 % of control
